assay.target: InsR (Homo sapiens)
Construct: purchased Promega
Sequence (P06213 28-1382): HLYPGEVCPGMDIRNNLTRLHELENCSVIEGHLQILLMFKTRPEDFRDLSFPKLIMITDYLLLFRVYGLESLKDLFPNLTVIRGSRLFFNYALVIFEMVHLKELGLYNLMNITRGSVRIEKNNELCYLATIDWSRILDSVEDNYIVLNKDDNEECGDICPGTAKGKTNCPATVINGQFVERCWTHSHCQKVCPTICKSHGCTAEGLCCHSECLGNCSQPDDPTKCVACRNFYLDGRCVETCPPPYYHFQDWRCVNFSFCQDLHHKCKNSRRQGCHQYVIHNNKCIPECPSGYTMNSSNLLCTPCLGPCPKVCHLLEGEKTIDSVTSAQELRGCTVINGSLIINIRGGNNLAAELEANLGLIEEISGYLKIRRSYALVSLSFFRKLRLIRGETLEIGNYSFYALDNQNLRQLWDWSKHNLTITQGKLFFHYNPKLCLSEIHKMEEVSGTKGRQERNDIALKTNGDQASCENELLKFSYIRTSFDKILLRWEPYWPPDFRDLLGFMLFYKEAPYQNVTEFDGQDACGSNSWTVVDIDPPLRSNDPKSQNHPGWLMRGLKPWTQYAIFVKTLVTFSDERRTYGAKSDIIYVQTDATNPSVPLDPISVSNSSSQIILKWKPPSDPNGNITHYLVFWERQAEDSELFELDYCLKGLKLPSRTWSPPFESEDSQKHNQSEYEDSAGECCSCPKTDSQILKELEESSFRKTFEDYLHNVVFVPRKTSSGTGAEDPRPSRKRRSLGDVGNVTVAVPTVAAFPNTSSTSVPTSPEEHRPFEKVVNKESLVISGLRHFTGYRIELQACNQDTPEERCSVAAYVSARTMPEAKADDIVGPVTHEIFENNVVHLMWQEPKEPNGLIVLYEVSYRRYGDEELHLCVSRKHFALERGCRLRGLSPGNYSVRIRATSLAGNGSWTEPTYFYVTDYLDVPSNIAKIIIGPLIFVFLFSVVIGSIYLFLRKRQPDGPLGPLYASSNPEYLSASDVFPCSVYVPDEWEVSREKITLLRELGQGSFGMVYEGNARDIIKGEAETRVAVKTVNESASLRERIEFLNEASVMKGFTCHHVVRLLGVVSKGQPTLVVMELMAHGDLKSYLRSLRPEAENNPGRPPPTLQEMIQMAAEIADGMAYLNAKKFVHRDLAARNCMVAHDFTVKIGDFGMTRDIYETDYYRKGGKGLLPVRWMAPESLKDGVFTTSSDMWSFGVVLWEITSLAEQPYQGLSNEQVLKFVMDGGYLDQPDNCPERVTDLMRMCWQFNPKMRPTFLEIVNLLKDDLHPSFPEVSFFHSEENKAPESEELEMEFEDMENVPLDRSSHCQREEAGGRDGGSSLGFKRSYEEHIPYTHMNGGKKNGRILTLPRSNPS
experiment.description: ADP-Glo kinase inhibitory assay, InsR
Assay type: biochemical
measurement.conditions: read-out: % Inhibition at 10 nM, InsR

compound: Cc1cn(-c2cc(NCc3ccc(C(=O)Nc4cccc(C(F)(F)F)c4)cc3)cc(C(F)(F)F)c2)cn1 [Compound 13]
assay.target: InsR (Homo sapiens)
inhibition at 0.01 µM, %: 0
//
compound: Cc1cn(-c2cc(NC(=O)c3ccc(CNc4cccc(C(F)(F)F)c4)cc3)cc(C(F)(F)F)c2)cn1 [Compound 11]
assay.target: InsR (Homo sapiens)
inhibition at 0.01 µM, %: 0
//
compound: COc1ccc(C(=O)N2CCN(Cc3ccc(C(=O)Nc4cc(-n5cnc(C)c5)cc(C(F)(F)F)c4)cc3)CC2)cc1 [Compound 28i]
assay.target: InsR (Homo sapiens)
inhibition at 0.01 µM, %: 52
//
compound: Cc1ccc(NC(=O)c2ccc(CN3CCN(C)CC3)cc2)cc1Nc1nccc(-c2cccnc2)n1 [Imatinib, reference compound]
assay.target: InsR (Homo sapiens)
inhibition at 0.01 µM, %: 36
